The reported numbers originate from patent US20240246946A1.

I'd be grateful if you could share measured IC50 for these entries.
Target: full length human TREX1 (Homo sapiens, UniProt Q9NSU2)
Construct: N-terminally His-Tev tagged full length human TREX1; made in house; host or cells: E. coli
Sequence (Q9NSU2 1-314): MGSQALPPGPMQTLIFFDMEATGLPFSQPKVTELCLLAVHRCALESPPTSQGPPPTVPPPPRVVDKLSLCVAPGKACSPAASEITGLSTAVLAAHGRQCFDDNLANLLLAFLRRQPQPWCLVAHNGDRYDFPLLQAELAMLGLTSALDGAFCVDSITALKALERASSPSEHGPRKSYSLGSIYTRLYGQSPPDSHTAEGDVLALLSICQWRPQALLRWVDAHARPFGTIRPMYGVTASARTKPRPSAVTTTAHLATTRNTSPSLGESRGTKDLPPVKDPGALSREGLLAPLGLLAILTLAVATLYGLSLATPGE
Experiment: hTREX1 Biochemical Assay (fluorescence, dsDNA substrate degradation)
Details: biochemical, read-out: hTREX1 IC50

# get_value(readout= IC50, system= full length human TREX1 (Homo sapiens, UniProt Q9NSU2)) for CC(c1nc(C(=O)Nc2cnoc2)c(O)c(=O)n1C)C(c1cnn(C)c1)c1cc(C(F)(F)F)ccc1C#N (single isomer, unassigned) [Example 29 D2E2]
> 10 nM

One more compound: Cc1cnc(C(c2cc(F)ccc2Cl)C(C)c2nc(C(=O)Nc3cnoc3)c(O)c(=O)n2C)cn1 (single isomer, unassigned) [Example 117 D2E1]
1 to 10 nM

One more compound: CC(c1nc(C(=O)Nc2cnoc2)c(O)c(=O)n1C)C(c1cn(C)cn1)c1ccccc1C#N (single isomer, unassigned) [Example 39 D2E1]
> 10 nM

One more compound: Cc1cn(C(c2ccccc2Cl)C(C)c2nc(C(=O)Nc3cnoc3)c(O)c(=O)n2C)cn1 (single isomer, unassigned) [Example 142 D1E2]
< 1 nM

One more compound: CC(c1nc(C(=O)Nc2cnoc2)c(O)c(=O)n1C)C(c1cnn(CCN2CCNCC2)c1)c1ccccc1C#N (single isomer, unassigned) [Example 31 D2E2]
> 10 nM

One more compound: Cc1cnn(C(c2ccccc2C#N)C(C)c2nc(C(=O)Nc3cnoc3)c(O)c(=O)n2C)c1 (single isomer, unassigned) [Example 47 D1E2]
> 10 nM

One more compound: CC(c1nc(C(=O)Nc2cnoc2)c(O)c(=O)n1C)C(c1cnn(C)c1)c1cc(Cl)ccc1C#N (single isomer, unassigned) [Example 26 D2E1]
> 10 nM

One more compound: CCn1cc(C(c2ccccc2Cl)C(C)c2nc(C(=O)Nc3cnoc3)c(O)c(=O)n2C)cn1 (single isomer, unassigned) [Example 85 D1E2]
1 to 10 nM

One more compound: Cc1nn(C)cc1C(c1cc(F)ccc1C#N)C(C)c1nc(C(=O)Nc2cnoc2)c(O)c(=O)n1C (single isomer, unassigned) [Example 57 D2E2]
> 10 nM

One more compound: Cc1nn(C)cc1C(c1ccccc1C#N)C(C)c1nc(C(=O)Nc2cnoc2)c(O)c(=O)n1C (single isomer, unassigned) [Example 3 D1E1]
< 1 nM

One more compound: CC(c1nc(C(=O)Nc2cnoc2)c(O)c(=O)n1C)C(c1ccccc1C#N)c1c[nH]nc1F (single isomer, unassigned) [Example 127 D1E1]
< 1 nM

One more compound: Cc1nn(C)cc1C(c1ccc(F)cc1C#N)C(C)c1nc(C(=O)Nc2cnoc2)c(O)c(=O)n1C (single isomer, unassigned) [Example 56 D2E2]
> 10 nM

One more compound: Cc1nn(C)cc1C(c1cc(F)ccc1C#N)C(c1nc(C(=O)Nc2cnoc2)c(O)c(=O)n1C)C(F)(F)F (single isomer, unassigned) [Example 42 D2E2]
> 10 nM

One more compound: CC(c1nc(C(=O)Nc2cnoc2)c(O)c(=O)n1C)C(c1ccccc1Cl)n1cc2ccccc2n1 (single isomer, unassigned) [Example 141 D1E2]
> 10 nM

One more compound: CC(c1nc(C(=O)Nc2cnoc2)c(O)c(=O)n1C)C(c1cnn(CCN2CCN(C(=O)OC(C)(C)C)CC2)c1)c1ccccc1C#N (single isomer, unassigned) [Example 21 D1E1]
< 1 nM

One more compound: CC(c1nc(C(=O)Nc2cnoc2)c(O)c(=O)n1C)C(c1cnn(CC(C)(C)O)c1)c1ccccc1C#N (single isomer, unassigned) [Example 36 D2E1]
> 10 nM

One more compound: CC(c1nc(C(=O)Nc2cnoc2)c(O)c(=O)n1C)C(c1cnn(CCCN(C)C)c1)c1ccccc1C#N (single isomer, unassigned) [Example 34 D2E2]
> 10 nM

One more compound: COCCn1cc(C(c2cc(F)ccc2C#N)C(C)c2nc(C(=O)Nc3cnoc3)c(O)c(=O)n2C)cn1 (single isomer, unassigned) [Example 18 D2E2]
> 10 nM

One more compound: Cc1nn(C)cc1C(c1cc(F)ccc1C#N)C(c1nc(C(=O)Nc2cnoc2)c(O)c(=O)n1C)C(F)(F)F (single isomer, unassigned) [Example 42 D1E2]
< 1 nM

One more compound: Cc1cnc(C)c(C(c2cc(F)ccc2C#N)C(C)c2nc(C(=O)Nc3cnoc3)c(O)c(=O)n2C)n1 (single isomer, unassigned) [Example 119 DIE1]
< 1 nM

One more compound: Cc1nc(C)c(C(c2ccccc2C#N)C(C)c2nc(C(=O)Nc3cnoc3)c(O)c(=O)n2C)nc1C (single isomer, unassigned) [Example 122 D2E2]
> 10 nM

One more compound: Cc1cnc(C)c(C(c2cc(F)ccc2C#N)C(C)c2nc(C(=O)Nc3cnoc3)c(O)c(=O)n2C)n1 (single isomer, unassigned) [Example 119 D2E1]
1 to 10 nM

One more compound: Cc1cnn(C)c1C(c1ccccc1C#N)C(C)c1nc(C(=O)Nc2cnoc2)c(O)c(=O)n1C (single isomer, unassigned) [Example 84 D1E1]
< 1 nM
